biological target: Tyrosine-protein kinase Lck (Homo sapiens) (UniProt P06239); details: at 1 µM;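 also: reported Lck percent inhibition is a mean value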
Sequence (P06239 2-509 limits assumed): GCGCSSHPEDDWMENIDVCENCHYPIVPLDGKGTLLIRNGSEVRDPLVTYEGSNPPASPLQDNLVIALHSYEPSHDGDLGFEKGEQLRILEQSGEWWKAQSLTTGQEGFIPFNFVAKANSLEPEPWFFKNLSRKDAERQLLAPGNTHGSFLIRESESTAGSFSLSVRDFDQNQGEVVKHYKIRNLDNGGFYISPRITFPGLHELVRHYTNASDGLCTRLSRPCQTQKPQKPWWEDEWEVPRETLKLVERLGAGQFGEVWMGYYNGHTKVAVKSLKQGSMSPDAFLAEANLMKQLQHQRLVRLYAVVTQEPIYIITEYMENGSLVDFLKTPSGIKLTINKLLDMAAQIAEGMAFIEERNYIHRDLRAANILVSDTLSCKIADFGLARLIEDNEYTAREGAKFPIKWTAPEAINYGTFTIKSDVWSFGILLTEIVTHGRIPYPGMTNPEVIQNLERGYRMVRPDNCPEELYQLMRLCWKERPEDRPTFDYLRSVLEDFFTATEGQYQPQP
measured.endpoint: inhibition (%)
// units = %; emit number, no label

Worked examples, 8 compounds total:
>  <item.smiles>
Fc1ccc(-c2ncn(C3CCNCC3)c2-c2ccnc(Oc3ccccc3)n2)cc1

>  <measured.endpoint>
inhibition

>  <numeric.value>
-2.53

$$$$
>  <item.smiles>
COc1cccc(COc2cc(-n3cnc4ccccc43)sc2C(N)=O)c1

>  <measured.endpoint>
inhibition

>  <numeric.value>
-0.7

$$$$
>  <item.smiles>
CCn1c(-c2nonc2N)nc2c(C#CC(C)(C)O)ncc(OCC3CCNCC3)c21

>  <measured.endpoint>
inhibition

>  <numeric.value>
-1.12

$$$$
>  <item.smiles>
NC(=O)c1sc(-n2cnc3cc(C(F)(F)F)ccc32)cc1OCc1ccccc1Br

>  <measured.endpoint>
inhibition

>  <numeric.value>
4.62

$$$$
>  <item.smiles>
Nc1nonc1-c1nc2cnccc2n1C1CCCCC1

>  <measured.endpoint>
inhibition

>  <numeric.value>
0.51

$$$$
>  <item.smiles>
CCn1c(-c2nonc2N)nc2c(C#CC(C)(C)O)nc(O[C@@H](CN)c3ccccc3)cc21

>  <measured.endpoint>
inhibition

>  <numeric.value>
4.58

$$$$
>  <item.smiles>
NS(=O)(=O)c1ccc(-c2ccc3c(NC(=O)C4CC4)n[nH]c3c2)cc1

>  <measured.endpoint>
inhibition

>  <numeric.value>
4.43

$$$$
>  <item.smiles>
Cc1cc(-c2ccco2)cc(C)c1/C=C/c1cncc(-c2nn[nH]n2)c1

>  <measured.endpoint>
inhibition

>  <numeric.value>
4.38

$$$$

--- query ---
Query "COc1cc(C=NNc2ncnc3c2cnn3Cc2ccccc2)ccc1O" yields inhibition of 14.2

* * *

molecular target: Platelet-derived growth factor receptor alpha (Homo sapiens) (UniProt P16234); settings: at 1 µM;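 also: values are mean percent inhibition of PDGFRA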
Sequence (P16234 whole entry): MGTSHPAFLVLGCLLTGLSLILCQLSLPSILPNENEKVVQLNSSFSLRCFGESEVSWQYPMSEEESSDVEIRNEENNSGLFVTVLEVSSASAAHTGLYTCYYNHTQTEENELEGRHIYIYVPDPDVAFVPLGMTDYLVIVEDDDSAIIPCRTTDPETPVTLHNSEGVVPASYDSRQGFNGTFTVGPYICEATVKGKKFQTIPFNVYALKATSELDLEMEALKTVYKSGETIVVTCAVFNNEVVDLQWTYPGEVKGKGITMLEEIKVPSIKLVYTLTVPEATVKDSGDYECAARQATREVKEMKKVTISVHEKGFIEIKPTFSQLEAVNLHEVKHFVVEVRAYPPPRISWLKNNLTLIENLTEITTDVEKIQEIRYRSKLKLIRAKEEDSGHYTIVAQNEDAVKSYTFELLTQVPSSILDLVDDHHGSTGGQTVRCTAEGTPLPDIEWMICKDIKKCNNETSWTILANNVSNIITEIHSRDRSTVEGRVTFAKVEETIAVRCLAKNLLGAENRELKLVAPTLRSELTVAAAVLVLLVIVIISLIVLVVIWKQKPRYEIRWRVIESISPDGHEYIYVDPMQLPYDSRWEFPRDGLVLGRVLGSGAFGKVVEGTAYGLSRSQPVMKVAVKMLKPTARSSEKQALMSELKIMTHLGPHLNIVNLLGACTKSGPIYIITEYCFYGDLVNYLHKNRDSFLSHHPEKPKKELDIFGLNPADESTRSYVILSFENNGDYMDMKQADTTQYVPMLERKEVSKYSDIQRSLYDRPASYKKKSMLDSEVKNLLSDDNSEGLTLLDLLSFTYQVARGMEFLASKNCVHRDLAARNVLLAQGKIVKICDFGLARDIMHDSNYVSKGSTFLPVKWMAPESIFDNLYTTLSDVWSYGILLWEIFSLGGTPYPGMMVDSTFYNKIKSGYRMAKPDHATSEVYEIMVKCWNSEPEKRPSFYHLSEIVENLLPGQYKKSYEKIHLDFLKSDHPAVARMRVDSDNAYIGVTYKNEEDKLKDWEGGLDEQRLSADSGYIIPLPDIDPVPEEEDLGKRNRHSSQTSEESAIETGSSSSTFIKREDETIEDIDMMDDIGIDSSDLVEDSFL
inhibition: recorded values
Hi, when you answer, please include the unit after the number. Thanks!

Worked examples, 3 compounds total:
>  <item.smiles>
CCn1c(-c2nonc2N)nc2c(C#CC(C)(C)O)ncc(OC[C@@H]3CCCN3)c21

>  <inhibition>
24.4%

$$$$
>  <item.smiles>
Fc1ccc(-c2ncn(C3CCNCC3)c2-c2ccnc(Oc3ccccc3)n2)cc1

>  <inhibition>
9.51%

$$$$
>  <item.smiles>
COc1cc2c(cc1Nc1nc(Nc3ccsc3C(N)=O)c3cc[nH]c3n1)N(C(=O)CN(C)C)CCC2

>  <inhibition>
26.1%

$$$$

--- query ---
Query "Nc1nonc1-c1nc2cnccc2n1C1CCCCC1" yields inhibition of 18.1%

* * *

molecular target: ALK tyrosine kinase receptor (Homo sapiens); conditions: at 1 µM;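 also: values are mean percent inhibition of ALK, screened as part of the GSK PKIS panel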
measured.endpoint: inhibition (%)
// units = %; emit number, no label

Query "Nc1nonc1-c1nc2cnccc2n1C1CCCCC1" yields inhibition of 2.16

Query "CCn1c(-c2nonc2N)nc2c(C#CC(C)(C)O)ncc(OC[C@@H]3CCCN3)c21" yields inhibition of 1.45

Query "COc1cc2c(cc1Nc1nc(Nc3ccsc3C(N)=O)c3cc[nH]c3n1)N(C(=O)CN(C)C)CCC2" yields inhibition of 85.4

Query "CCn1c(-c2nonc2N)nc2c(C#CC(C)(C)O)nc(O[C@@H](CN)c3ccccc3)cc21" yields inhibition of 19.6

Query "Fc1ccc(-c2ncn(C3CCNCC3)c2-c2ccnc(Oc3ccccc3)n2)cc1" yields inhibition of -0.15
